Each entry below lists one item and its recorded Partition Coefficient, D AA value.
- Assay procedure: Extraction of acrylic acid and 3-hydroxypropionic acid from aqueous stock solutions using various extractants
- Assay conditions: Aqueous Stock Solution No. 1 (0.67 wt % AA, 1.34 wt % 3HP); 22° C.; extractant phase/aqueous phase

Past entries and their recorded results:
{"Molecule": "C=CC(=O)OC [Methyl Acrylate, Methyl acrylate]", "Result": 1.82}
{"Molecule": "CC(=O)OC(C)C [Isopropyl Acetate, Isopropyl acetate]", "Result": 2.19}
{"Molecule": "CCC(=O)OC [Methyl Propionate, Methyl propionate]", "Result": 2.13}

Read the entry ClCCl [CH2Cl2, Methylene chloride] and write its reported Partition Coefficient, D AA.
0.06
